B1: POU domain, class 2, transcription factor 1, residues 285 to 354; numbered along this chain, P14859 (parent)
chain: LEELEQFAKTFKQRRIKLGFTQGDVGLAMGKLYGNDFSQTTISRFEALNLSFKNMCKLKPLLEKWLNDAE

variants of: B1; assay: abundance fitness (aPCA) (normalised: wild type 0, dead -1); higher = more abundant; growth selection in yeast, the domain comes from the species named; settings: Homo sapiens
Give measured abundance fitness for each item. Keep answers brief.
Form: value (number only, do not type unit).

Query: Assign abundance fitness to the following record: LEELEQFAKTFKQRRIKLGFTQGDVGLAMGKLYGNDFSQWTISRFEALNLSFKNMCKLKPLLEKWLNDAE [T40W]
Response: -0.054

Query: Using the record for LEELEQFAKTFKQRRIKLGFTQGDVGLAMGKLYGNDFNQTTISRFEALNLSFKNMCKLKPLLEKWLNDAE [S38N] , state its measured abundance fitness.
Response: -0.032

Query: Quickly give me recorded abundance fitness for LEELEQFAKTFKQRRIKLGFTQGDVGLAMGKLYGNDFSQTTISRFEALNLSFKNMCKLIPLLEKWLNDAE [K59I]
Response: -0.13

Query: Look up and state reported abundance fitness for LEELEQFAKTFKQRRIKLGFTQGDVGLAMGKLYGNDASQTTISRFEALNLSFKNMCKLKPLLEKWLNDAE [F37A]
Response: -0.081

Query: Consider the variant LEELEQFAKTFKQRRIKLGFTQGDVGLAMGKLYGNDFSQTTISRFEALNLSFKNMCKLKPLLEWWLNDAE [K64W] and give its recorded abundance fitness.
Response: -0.113

Query: Tell me measured abundance fitness for LEELEQFAKTFKQRRIKLGFTQGDVGLAMGKLYGNDFSQTTISRFEALNLSFKNMCKLKPLWEKWLNDAE [L62W] please.
Response: -1.08

Query: Give abundance fitness for the following variant: LEELEQFAKTFKQRRIKLGFTQGDVGLAMGKLYGNDFSQTTISRFEALNLSIKNMCKLKPLLEKWLNDAE [F52I]
Response: 0.013

Query: Identify measured abundance fitness associated with LEELEQFAKTFKQRRIKLGFTQGDVGLAMGKLYGNDFSQTTISRFEALNLSFKLMCKLKPLLEKWLNDAE [N54L]
Response: -0.005

Query: Specify reported abundance fitness for the variant shown: LEELEQFAKTFKYRRIKLGFTQGDVGLAMGKLYGNDFSQTTISRFEALNLSFKNMCKLKPLLEKWLNDAE [Q13Y]
Response: 0.011

Query: Look up and state reported abundance fitness for LEELEQFAKTFKQRRIKLGFTQGDVGLAMGKLYGNDFSQTTISRFEALNLSFKNMCKLSPLLEKWLNDAE [K59S]
Response: -0.092

Query: Identify measured abundance fitness associated with LEELEQFAKTFKQRRIKLGFTQGDVGLAMGKLYGNDFSQTTISRFEASNLSFKNMCKLKPLLEKWLNDAE [L48S]
Response: -0.005

Query: Determine its reported abundance fitness: LYELEQFAKTFKQRRIKLGFTQGDVGLAMGKLYGNDFSQTTISRFEALNLSFKNMCKLKPLLEKWLNDAE [E2Y]
Response: -0.046

Query: Provide measured abundance fitness value, entry: LEELEQFAKTFKQRRIKLGFTQGDVGLAMGKLYGNDFSQTTISRFEALNLSFKNMCKVKPLLEKWLNDAE [L58V]
Response: 0.005

Query: Supply reported abundance fitness belonging to this variant: LEELEQFAKTFKQRRIKLGFTQGDVGLAMGFLYGNDFSQTTISRFEALNLSFKNMCKLKPLLEKWLNDAE [K31F]
Response: -0.126

Query: Consider the variant LEELEQFAKTFKQRRIKLGFTQGDVGLAMGKLYGNDFSQTTISRFEALNLSNKNMCKLKPLLEKWLNDAE [F52N] and give its recorded abundance fitness.
Response: -0.039

Query: Quote abundance fitness reported for LEELEQFAKTFKQRRIKLGFTQGDVGLAMGKLYGNDFSQTTISRFEALNLSFKNMCKFKPLLEKWLNDAE [L58F] please.
Response: -0.026

Query: Quickly give me recorded abundance fitness for LEELEQFNKTFKQRRIKLGFTQGDVGLAMGKLYGNDFSQTTISRFEALNLSFKNMCKLKPLLEKWLNDAE [A8N]
Response: -0.625

Query: Read off the recorded abundance fitness for LEELEQFAKTFKQRRIPLGFTQGDVGLAMGKLYGNDFSQTTISRFEALNLSFKNMCKLKPLLEKWLNDAE [K17P]
Response: -0.966

Query: Write down abundance fitness measured for item LEEVEQFAKTFKQRRIKLGFTQGDVGLAMGKLYGNDFSQTTISRFEALNLSFKNMCKLKPLLEKWLNDAE [L4V]
Response: -0.145

Query: Identify measured abundance fitness associated with LEELEQFAKTFKQRRIKLGFTQGDVGLAMGKLKGNDFSQTTISRFEALNLSFKNMCKLKPLLEKWLNDAE [Y33K]
Response: -0.053

Query: Indicate the recorded abundance fitness value for this variant: LEELEQFAKTFKQRRIKLGFTQGDVGLAMGKLYGNDFSQTTISRFEALNQSFKNMCKLKPLLEKWLNDAE [L50Q]
Response: -0.207

Query: Give me measured abundance fitness, please, for this variant: LVELEQFAKTFKQRRIKLGFTQGDVGLAMGKLYGNDFSQTTISRFEALNLSFKNMCKLKPLLEKWLNDAE [E2V]
Response: -0.067

Query: Tell me its abundance fitness given LEELEQFAKTFKQRRIKLGFTQGDVGLAMGKLYGNDFSQTTISRFEALNLSFKNMCKLKVLLEKWLNDAE [P60V] as the entry.
Response: -0.141

Query: Read off the recorded abundance fitness for LEELEQFAKTFKQRRIKLGFTQGDVGLAMGKLYGNDFSQCTISRFEALNLSFKNMCKLKPLLEKWLNDAE [T40C]
Response: 0.019

Query: Determine from records and report abundance fitness for LEELEQFAKTFKQRRIKLGFTQGDVGLAMCKLYGNDFSQTTISRFEALNLSFKNMCKLKPLLEKWLNDAE [G30C]
Response: 0

Query: Quickly give me recorded abundance fitness for LEELEQFAKTFKQRRIKLGHTQGDVGLAMGKLYGNDFSQTTISRFEALNLSFKNMCKLKPLLEKWLNDAE [F20H]
Response: -0.045

Query: Name the recorded abundance fitness of the variant listed here: LEELELFAKTFKQRRIKLGFTQGDVGLAMGKLYGNDFSQTTISRFEALNLSFKNMCKLKPLLEKWLNDAE [Q6L]
Response: -0.031

Query: Identify the reported abundance fitness for the following entry. LEELEQFAKTFKQHRIKLGFTQGDVGLAMGKLYGNDFSQTTISRFEALNLSFKNMCKLKPLLEKWLNDAE [R14H]
Response: -0.156

Query: State its abundance fitness for this variant: LEELEQFAKTFKQRRIKLGFTQGDVGLAMGKLYGNDFSQTTISRFEALNLSFKNMCKLKPLLEKWLNDIE [A69I]
Response: -0.027

Query: Assign abundance fitness to the following record: LEELEQFAKTFKQRRIKLGFTQGDVGLTMGKLYGNDFSQTTISRFEALNLSFKNMCKLKPLLEKWLNDAE [A28T]
Response: -0.01

Query: Complete the entry with abundance fitness for LEELEQFAKTFKQRRIKLGFTQGDVGLEMGKLYGNDFSQTTISRFEALNLSFKNMCKLKPLLEKWLNDAE [A28E]
Response: -0.508

Query: Please list abundance fitness recorded for the variant LEELGQFAKTFKQRRIKLGFTQGDVGLAMGKLYGNDFSQTTISRFEALNLSFKNMCKLKPLLEKWLNDAE [E5G]
Response: -0.019

Query: Respond only with abundance fitness recorded for LEELEQFAKTFKQRRIKLGFTQGDVILAMGKLYGNDFSQTTISRFEALNLSFKNMCKLKPLLEKWLNDAE [G26I]
Response: -0.076

The reported numbers originate from the Human Domainome abundance scans (Beltran et al. 2025).
